Quick reference: mortality of the listed items.
tested on: Leptinotarsa decemlineata; test: Insecticidal activity against second-instar larval stage of Leptinotarsa decemlineata infested potato leaves assessed as mortality at 20 ul after 24 hr (reference value: 3.3 +/- 3.3%); assay type: functional
experimental-endpoint: mortality

[
  {
    "compound": "CC1=CCC(O)(C(C)C)CC1 (centres undefined)",
    "reading": "100%"
  },
  {
    "compound": "C=C(C)[C@@H]1CC[C@@H](C)C(=O)C1 [DIHYDROCARVONE]",
    "reading": "83.3%"
  },
  {
    "compound": "CC(C)[C@H]1CC[C@H](C)CC1=O (relative stereo)",
    "reading": "53.3%"
  },
  {
    "compound": "CC(C)=CCCC(C)CCO (centres undefined)",
    "reading": "20%"
  },
  {
    "compound": "CC(C)=CCC/C(C)=C\\CO",
    "reading": "16.7%"
  },
  {
    "compound": "CC12CCC(CC1)C(C)(C)O2",
    "reading": "100%"
  },
  {
    "compound": "C=CC(C)(O)CCC=C(C)C (centres undefined)",
    "reading": "93.3%"
  },
  {
    "compound": "C=CC(C)(CCC=C(C)C)OC(C)=O (centres undefined) [LINALYL ACETATE]",
    "reading": "63.3%"
  },
  {
    "compound": "C=C(C)C1CC=C(C)C(=O)C1 (centres undefined)",
    "reading": "83.3%"
  }
]
